# System: soybean (Glycine max L., var. Pella 86, SOY)
# Measurement description: Pre-emerge greenhouse test, crop damage rating
# Format: in vivo
# Test conditions: 1000 g ai/ha, 14 days after application, rating scale 0-100
Consider the following compounds; for each one, report its crop damage rating SOY.
Respond numerically, and do not add a unit to the figure.

Per the records, this compound ( CCOC(=O)C(C)Oc1ccc(Oc2cc(-n3c(=O)cc4n(c3=O)CCC4)c(F)cc2Cl)cc1 (stereo not shown) [Compound 5-6] ) has crop damage rating SOY equal to 60

Per the records, this compound ( O=c1cc2n(c(=O)n1-c1cc(Oc3ncccc3[N+](=O)[O-])c(Cl)cc1F)CCC2 [Compound 5-8] ) has crop damage rating SOY equal to 50

Per the records, this compound ( N#Cc1ccc(Oc2cc(-n3c(=O)cc4n(c3=O)CCC4)c(F)cc2Cl)nc1 [Compound 5-11] ) has crop damage rating SOY equal to 60

Per the records, this compound ( O=c1cc2n(c(=O)n1-c1cc(Oc3ccc([N+](=O)[O-])cc3)c(Cl)cc1F)CCC2 [Compound 5-2] ) has crop damage rating SOY equal to 10

Per the records, this compound ( O=c1cc2n(c(=O)n1-c1cc(Oc3ccccc3[N+](=O)[O-])c(Cl)cc1F)CCC2 [Compound 5-1] ) has crop damage rating SOY equal to 55

Per the records, this compound ( N#Cc1cccnc1Oc1cc(-n2c(=O)cc3n(c2=O)CCC3)c(F)cc1Cl [Compound 5-9] ) has crop damage rating SOY equal to 50

Per the records, this compound ( Nc1ccc(Oc2cc(-n3c(=O)cc4n(c3=O)CCC4)c(F)cc2Cl)cc1 [Compound 5-3] ) has crop damage rating SOY equal to 40

Origin of values: patent US6479435B1
